This collection of values is drawn from ChEMBL document CHEMBL1201862.

molecules and their reported GI50
- System: SR
- assay_procedure: NCI tumour cell line growth inhibition, 48 h
Calls of active or inactive are those of the source. Cut-off read from the data, not from the text of the source: active = GI50 up to about 1.1 µM and inactive = higher.

[
  {
    "molecule": "CN(C)c1ccc(/C=C/c2nc3ccccc3s2)cc1",
    "GI50": "> 100 µM (inactive)"
  },
  {
    "molecule": "CCOC(=O)c1cc2c(nc1N)-c1ncccc1CC2",
    "GI50": "18.7 µM (inactive)"
  },
  {
    "molecule": "Oc1ccc(Cn2c(-c3ccc(O)cc3)nc3ccccc32)cc1",
    "GI50": "> 31.6 µM (inactive)"
  },
  {
    "molecule": "N/C(=N\\O)N/N=C/c1cccs1",
    "GI50": "67.3 µM (inactive)"
  },
  {
    "molecule": "CC1NOC(NS(=O)(=O)c2ccc(/N=N/c3c(O)c(C(=O)O)cc4ccccc34)cc2)C1C (stereo unspecified)",
    "GI50": "> 100 µM (inactive)"
  },
  {
    "molecule": "C/C(=N\\NS(=O)(=O)c1ccc(C)cc1)C(CN(C)C)C(c1ccccc1)c1c(O)c2ccccc2oc1=O (stereo unspecified)",
    "GI50": "> 60 µM (inactive)"
  },
  {
    "molecule": "COC(=O)N/N=c1\\cc(C(=O)Nc2ccc(C)c(C)c2)oc2cc(O)ccc12",
    "GI50": "> 100 µM (inactive)"
  },
  {
    "molecule": "CCC(=O)Nc1ccc(NCC(=O)Nc2ccc(OC)cc2)cc1",
    "GI50": "31.8 µM (inactive)"
  },
  {
    "molecule": "O=c1[nH]c2cccc([N+](=O)[O-])c2c(=O)n1-c1ccc(Cl)cc1",
    "GI50": "15 µM (inactive)"
  },
  {
    "molecule": "Cc1cc(C)nc(NC(=S)Nc2ccc([N+](=O)[O-])cc2)c1",
    "GI50": "> 100 µM (inactive)"
  },
  {
    "molecule": "O=C(c1cc2ccccc2o1)N(Cc1ccccc1)c1ccccc1",
    "GI50": "26.9 µM (inactive)"
  }
]

###

- Test system: HOP-92
- assay_procedure: NCI tumour cell line growth inhibition, 48 h
Calls of active or inactive are those of the source. Rule as the data show it: active = GI50 up to about 1.1 µM and inactive = higher.

[
  {
    "molecule": "c1cc2sc1CSCCSCCSC2",
    "GI50": "> 100 µM (inactive)"
  },
  {
    "molecule": "Cc1cc2ncn(CC(=O)O)c2cc1C",
    "GI50": "> 100 µM (inactive)"
  },
  {
    "molecule": "COC(=O)C1c2cc3c(cc2C(OC2OC(C)C(OC)C(C)(OC)C2OC)CC1(C)O)C(=O)c1c(O)cc2c(c1C3=O)OC1OC2(C)C(O)C([N+](C)(C)[O-])C1O (centres undefined)",
    "GI50": "0.144 µM (active)"
  },
  {
    "molecule": "COc1cc(OC)c2c(=O)cc(-c3ccc(OC)c(OC)c3OC)oc2c1",
    "GI50": "37 µM (inactive)"
  },
  {
    "molecule": "[N-]=[N+]=Nc1ccccc1C(=O)N1C(=O)c2ccccc2C(=O)N(C(=O)c2ccccc2N=[N+]=[N-])c2ccccc21",
    "GI50": "23.1 µM (inactive)"
  },
  {
    "molecule": "CCOC1CC2OC(=O)C1C=C2C(=O)OC (centres undefined)",
    "GI50": "32.7 µM (inactive)"
  },
  {
    "molecule": "CCCCN(CCCC)CC(O)c1cc(-c2ccc(C(F)(F)F)cc2)nc(-c2ccc(C(F)(F)F)cc2)c1 (centres undefined)",
    "GI50": "61.5 µM (inactive)"
  },
  {
    "molecule": "C=C1C(=O)O[C@H]2[C@H](OC(C)=O)[C@@H](C)CCC/C(C)=C/CC[C@@]3(C)O[C@@H]3C[C@@H]12",
    "GI50": "1.92 µM (inactive)"
  },
  {
    "molecule": "CC(C)(C)n1[nH]c(=O)n(C(C)(C)C)c1=O",
    "GI50": "> 100 µM (inactive)"
  },
  {
    "molecule": "COc1cc(Cn2c3ccccc3c3cc(C)c4c(c32)C=CC(C)(CCC=C(C)C)O4)cc2c1[nH]c1ccccc12 (centres undefined)",
    "GI50": "> 100 µM (inactive)"
  },
  {
    "molecule": "c1ccc(-c2cc(-c3cc(-c4ccccc4)no3)on2)cc1",
    "GI50": "24.5 µM (inactive)"
  },
  {
    "molecule": "COC(=O)Nc1nc2cc(NC(=O)c3cccs3)ccc2[nH]1",
    "GI50": "1.53 µM (inactive)"
  },
  {
    "molecule": "NC(=O)C(=O)C(c1ccccc1)S(=O)(=O)Cc1ccccc1 (centres undefined)",
    "GI50": "> 100 µM (inactive)"
  },
  {
    "molecule": "COc1ccc(-c2c(C3=NCCCN3)nnn2-c2ccccc2)cc1",
    "GI50": "86.5 µM (inactive)"
  },
  {
    "molecule": "Cc1nc2ccccc2c(=O)n1NC(=O)c1ccc([N+](=O)[O-])cc1",
    "GI50": "> 100 µM (inactive)"
  },
  {
    "molecule": "CCOC(=O)C1(C(=O)OCC)C[C@H]2CON=C2[C@@H]1c1ccc(C(F)(F)F)cc1",
    "GI50": "50.4 µM (inactive)"
  },
  {
    "molecule": "CC12C(=O)CC(CC1=O)C2(C)C",
    "GI50": "> 100 µM (inactive)"
  },
  {
    "molecule": "CN1CCOC(C(NC(=O)c2ccccc2)c2ccccc2)C1=O (centres undefined)",
    "GI50": "> 100 µM (inactive)"
  },
  {
    "molecule": "COC(=O)C[C@](O)(CCCC(C)(C)O)C(=O)O[C@@H]1C(OC)=C[C@]23CCCN2CCc2cc4c(cc2[C@H]13)OCO4 [OMACETAXINE MEPESUCCINATE]",
    "GI50": "0.0869 µM (active)"
  }
]

###

- System: HOP-62
- assay_procedure: NCI tumour cell line growth inhibition, 48 h
The source made the active and inactive calls. Cut-off read from the data, not from the text of the source: active = GI50 up to about 1.1 µM and inactive = higher.
measure_name: GI50

[
  {
    "molecule": "NC(=O)N/N=C(\\Cc1nc2ccc(C(=O)c3ccccc3)cc2nc1O)C(=O)Nc1ccc(Br)cc1",
    "system_tested": "HOP-62",
    "readout_value": "> 100 µM (inactive)"
  },
  {
    "molecule": "CCn1c(SCC(=O)NNC(=S)NC)nc2ccccc2c1=O",
    "system_tested": "HOP-62",
    "readout_value": "> 100 µM (inactive)"
  },
  {
    "molecule": "CCC1(O)CC(c2ccccc2)N(C)C(c2ccccc2)C1 (configuration not stated)",
    "system_tested": "HOP-62",
    "readout_value": "> 100 µM (inactive)"
  },
  {
    "molecule": "CCCOC(=O)CNC(=O)OC(C)(C)C",
    "system_tested": "HOP-62",
    "readout_value": "> 100 µM (inactive)"
  },
  {
    "molecule": "CCn1c(SCC(=O)N/N=C2\\SCC(=O)N2c2ccc(C)cc2)nc2ccccc2c1=O",
    "system_tested": "HOP-62",
    "readout_value": "21.7 µM (inactive)"
  },
  {
    "molecule": "CC1NOC(NS(=O)(=O)c2ccc(/N=N/c3c(O)c(C(=O)O)cc4ccccc34)cc2)C1C (configuration not stated)",
    "system_tested": "HOP-62",
    "readout_value": "> 100 µM (inactive)"
  },
  {
    "molecule": "Cc1nnc(N/N=C2\\C(=O)Nc3ccccc32)n1N",
    "system_tested": "HOP-62",
    "readout_value": "> 100 µM (inactive)"
  },
  {
    "molecule": "COc1ccc(/N=N/C(=O)NC(CC(C)C)C(=O)NCC(=O)O)cc1 (configuration not stated)",
    "system_tested": "HOP-62",
    "readout_value": "41.6 µM (inactive)"
  },
  {
    "molecule": "c1cc2nnc1SCCCSc1ccc(nn1)SCCCSc1ccc(nn1)SCCCS2",
    "system_tested": "HOP-62",
    "readout_value": "39.6 µM (inactive)"
  },
  {
    "molecule": "c1csc(-c2nn3c(C45CC6CC(CC(C6)C4)C5)nnc3s2)c1",
    "system_tested": "HOP-62",
    "readout_value": "> 100 µM (inactive)"
  },
  {
    "molecule": "Cc1cc2c(=O)n(-c3ccc(F)cc3)c(C)nc2c(C(=O)O)c1C",
    "system_tested": "HOP-62",
    "readout_value": "> 100 µM (inactive)"
  },
  {
    "molecule": "C=C1C(=O)O[C@H]2C/C(C)=C/CC[C@@]3(C)O[C@](C)(CC[C@@H]3I)[C@@H](I)C[C@@H]12",
    "system_tested": "HOP-62",
    "readout_value": "8.59 µM (inactive)"
  }
]
